Cited source for all entries: paper PMC5733478

Hi there, I'd appreciate the recorded % 25 nM CA200645 binding for every entry that follows.
Target: human A3AR (Homo sapiens)
Construct: expressed in transfected cells
Sequence (P0DMS8 whole entry): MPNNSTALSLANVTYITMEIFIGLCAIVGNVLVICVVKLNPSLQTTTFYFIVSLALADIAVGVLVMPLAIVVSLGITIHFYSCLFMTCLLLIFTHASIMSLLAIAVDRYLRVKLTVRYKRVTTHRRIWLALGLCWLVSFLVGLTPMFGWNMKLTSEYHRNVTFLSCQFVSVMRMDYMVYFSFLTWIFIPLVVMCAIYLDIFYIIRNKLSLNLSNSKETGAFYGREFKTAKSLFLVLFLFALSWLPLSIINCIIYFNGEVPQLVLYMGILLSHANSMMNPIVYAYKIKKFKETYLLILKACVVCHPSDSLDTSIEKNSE
Experiment: LOPAC library primary screen: single concentration (10 μM) inhibition of 25 nM CA200645 binding, PHERAstar FS
Value expressed in %; do not type the unit.

Per the records, this compound ( Nc1ncnc2c1ncn2[C@@H]1O[C@H](COP(=O)(O)CP(=O)(O)OP(=O)([O-])[O-])[C@H](O)C1O.[Li+].[Li+] (stereo partly drawn) ) has % 25 nM CA200645 binding equal to 102.3

The compound listed as NCCCS(=O)(=O)O.[Na] [3-Amino-1-propanesulfonic acid sodium] has a reported % 25 nM CA200645 binding of 96.5

Measured % 25 nM CA200645 binding of CC[C@@H]1C(=O)OC[C@@H]1Cc1cncn1C [Pilocarpine nitrate] : 92.9

So, CC1(C)NC(=O)N(c2ccc([N+](=O)[O-])c(C(F)(F)F)c2)C1=O [Nilutamide] ? Its % 25 nM CA200645 binding was 98.7

Entry under test: N=C(N)NC(=O)c1nc(Cl)c(N2CCCCCC2)nc1N [5-(N,N-hexamethylene)amiloride] . Its % 25 nM CA200645 binding was 87.5

Given item O=C(O)CP(=O)(O)O , the value recorded as its % 25 nM CA200645 binding is 103.4

Please fill in: % 25 nM CA200645 binding reported for COC(=O)C1=CO[C@@H](O)[C@@H]2C(CO)=CC[C@H]12 = 96.3

CC(=N)NCCCC[C@H](N)C(=O)O.Cl [L-N6-(1-Iminoethyl)lysine hydrochloride] yielded % 25 nM CA200645 binding of 96.4

The recorded % 25 nM CA200645 binding for entry CCOC(=O)N1CCC(=C2c3ccc(Cl)cc3CCc3cccnc32)CC1 equals 85.0

###

Molecular target: human A3AR (Homo sapiens)
Construct: expressed in transfected cells
Test: LOPAC library primary screen: single concentration (10 μM) inhibition of 25 nM CA200645 binding, PHERAstar FS
Structures can show the parent of a compound that is named as a salt.
Assign % 25 nM CA200645 binding to each entry below.
Give a bare numeral; the unit % is implied.

Value (% 25 nM CA200645 binding, human A3AR (Homo sapiens)) for record O=c1cc(-c2ccc(O)cc2)oc2cc(O)cc(O)c12 = 41.8

Response field % 25 nM CA200645 binding (human A3AR (Homo sapiens)) for item CN1CCC(=C2c3ccccc3C=Cc3ccccc32)CC1 [Cyproheptadine hydrochloride] : 96.0

Hey, human A3AR (Homo sapiens) data for Cc1ccc(=O)n(-c2ccccc2)c1 : % 25 nM CA200645 binding came out at 96.4

Record C[C@@]12C(=O)OC(=O)[C@]1(C)[C@H]1CC[C@@H]2O1 has human A3AR (Homo sapiens) % 25 nM CA200645 binding equal to 89.3

Considering CC(C)C(=O)c1c(C(C)C)nn2ccccc12 , its % 25 nM CA200645 binding with human A3AR (Homo sapiens) was recorded as 82.8

Observed % 25 nM CA200645 binding, human A3AR (Homo sapiens), Cl.O=c1[nH]oc2c1CCNC2 [THIP hydrochloride] : 100.3

Record Cl.NCCCCC(=O)O [5-Aminovaleric acid hydrochloride] has human A3AR (Homo sapiens) % 25 nM CA200645 binding equal to 97.9

Field % 25 nM CA200645 binding (system: human A3AR (Homo sapiens)) for entry O=c1[nH]c(=O)n([C@H]2C[C@H](O)[C@@H](CO)O2)cc1Br = 101.6

Fill in: human A3AR (Homo sapiens) % 25 nM CA200645 binding for N#Cc1cc2nc([O-])c([O-])nc2cc1[N+](=O)[O-].[Na+].[Na+] [CNQX disodium] = 94.7

Noted % 25 nM CA200645 binding for O=C(CCCN1CCC(O)(c2cccc(C(F)(F)F)c2)CC1)c1ccc(F)cc1 [Trifluperidol hydrochloride] , tested on human A3AR (Homo sapiens): 102.8

Per the reported human A3AR (Homo sapiens) data, COC(=O)C1=C(C)NC(C)=C(C(=O)OC(C)(C)CN(C)CCC(c2ccccc2)c2ccccc2)C1c1cccc([N+](=O)[O-])c1.COC(=O)C1=C(C)NC(C)=C(C(=O)OC(C)(C)CN(C)CCC(c2ccccc2)c2ccccc2)C1c1cccc([N+](=O)[O-])c1.Cl.Cl.O (stereo not shown) [Lercanidipine hydrochloride hemihydrate] has % 25 nM CA200645 binding of 82.9

The reported % 25 nM CA200645 binding value, human A3AR (Homo sapiens), for Cc1cccc(-c2[nH]c(C(C)(C)C)nc2-c2ccc3nccnc3c2)n1 reads 76.3

Form field % 25 nM CA200645 binding for item O=[N+]([O-])/C=C/c1ccc2c(c1)OCO2 on human A3AR (Homo sapiens): 50.1

Bench note, human A3AR (Homo sapiens): entry CN(C)CCCN1c2ccccc2Sc2ccc(C(F)(F)F)cc21 [Triflupromazine hydrochloride] , its % 25 nM CA200645 binding = 99.0

Measured % 25 nM CA200645 binding for this entry CN(C)C(N)=NCCC[C@H](N)C(=O)O.Cl [N^G,N^G-Dimethylarginine hydrochloride] on human A3AR (Homo sapiens): 101.2

The reported human A3AR (Homo sapiens) % 25 nM CA200645 binding of CCCNCC(O)COc1ccccc1C(=O)CCc1ccccc1 (stereo not shown) [Propafenone hydrochloride] is 111.3

Item CCN(CC)CC#CCOC(=O)C(O)(c1ccccc1)C1CCCCC1 (stereo not shown) [Oxybutynin Chloride] ; assay system human A3AR (Homo sapiens); % 25 nM CA200645 binding reported as 101.0

Query CC1CCN(CC[C@H]2CCCN2S(=O)(=O)c2cccc(O)c2)CC1.Cl [SB 269970 hydrochloride] on human A3AR (Homo sapiens); % 25 nM CA200645 binding returned: 93.6

Reading of % 25 nM CA200645 binding for CN1CC[C@@]2(C)c3cc(O)ccc3N(C)[C@@H]12.O=C(O)/C=C/C(=O)O [(-)-Eseroline fumarate] with human A3AR (Homo sapiens): 105.8

Field % 25 nM CA200645 binding (human A3AR (Homo sapiens)), entry O=C1CC2(CCCC2)CC(=O)N1CCCCN1CCN(c2ncccn2)CC1 [Buspirone hydrochloride] : 102.9

Entry CNCC[C@@H](Oc1ccccc1C)c1ccccc1 , human A3AR (Homo sapiens) data, % 25 nM CA200645 binding value: 97.5

% 25 nM CA200645 binding for human A3AR (Homo sapiens) with input CC(N)Cc1c[nH]c2ccc(OCc3cccs3)cc12 (stereo not shown) equals 102.2

// assay human A3AR (Homo sapiens), entry Cl.Cl.Cn1cnc(CCN)c1 [1-Methylhistamine dihydrochloride] , % 25 nM CA200645 binding value = 99.7

Lab entry: human A3AR (Homo sapiens) assay, compound CN1CCc2cccc3c2[C@H]1Cc1ccc(O)c(O)c1-3 [Apomorphine hydrochloride hemihydrate] , % 25 nM CA200645 binding = 95.0

Simply: O=C(O)CCC(=O)N1CCC[C@H]1C(=O)O , human A3AR (Homo sapiens), % 25 nM CA200645 binding = 81.8

Field % 25 nM CA200645 binding (system: human A3AR (Homo sapiens)) for entry CS(=O)(=O)O.Cc1c(O)cccc1C(=O)N[C@@H](CSc1ccccc1)[C@H](O)CN1C[C@H]2CCCC[C@H]2C[C@H]1C(=O)NC(C)(C)C.O [Nelfinavir mesylate hydrate] = 77.3

Note to self: % 25 nM CA200645 binding of NCCCNCCCCNCCCN [Spermine tetrahydrochloride] with human A3AR (Homo sapiens) was 105.8

Form: item O=C(O)CCCCC1CCSS1 (racemic) [(±)-alpha-Lipoic Acid] ; test system human A3AR (Homo sapiens); % 25 nM CA200645 binding: 99.7

// assay human A3AR (Homo sapiens), entry COc1cc(N)c(Cl)cc1C(=O)OCCN1CCCCC1 , % 25 nM CA200645 binding value = 105.8

Response field % 25 nM CA200645 binding (human A3AR (Homo sapiens)) for item Cc1cc2c(cc1Cl)N(C(=O)Nc1cccc3ncccc13)CC2 : 98.1

Given the compound Nc1nc2c(ncn2COCCO)c(=O)[nH]1 and test system human A3AR (Homo sapiens), the measured % 25 nM CA200645 binding is 99.9

Reported % 25 nM CA200645 binding (human A3AR (Homo sapiens)) for entry CC(C)(C)OC(=O)NC1[C@H]2CNC[C@@H]12 (stereo partly shown) is 102.3

Reading of % 25 nM CA200645 binding for CN(Cc1cnc2nc(N)nc(N)c2n1)c1ccc(C(=O)N[C@@H](CCC(=O)O)C(=O)O)cc1.O [Methotrexate hydrate] with human A3AR (Homo sapiens): 100.1

Test item O=C(CCc1ccc(O)cc1)c1c(O)cc(O)cc1O ; human A3AR (Homo sapiens); reported % 25 nM CA200645 binding was 67.7
